Molecular target: wt human NUAK1, full length (Homo sapiens, UniProt O60285)
Sequence (O60285 1-661): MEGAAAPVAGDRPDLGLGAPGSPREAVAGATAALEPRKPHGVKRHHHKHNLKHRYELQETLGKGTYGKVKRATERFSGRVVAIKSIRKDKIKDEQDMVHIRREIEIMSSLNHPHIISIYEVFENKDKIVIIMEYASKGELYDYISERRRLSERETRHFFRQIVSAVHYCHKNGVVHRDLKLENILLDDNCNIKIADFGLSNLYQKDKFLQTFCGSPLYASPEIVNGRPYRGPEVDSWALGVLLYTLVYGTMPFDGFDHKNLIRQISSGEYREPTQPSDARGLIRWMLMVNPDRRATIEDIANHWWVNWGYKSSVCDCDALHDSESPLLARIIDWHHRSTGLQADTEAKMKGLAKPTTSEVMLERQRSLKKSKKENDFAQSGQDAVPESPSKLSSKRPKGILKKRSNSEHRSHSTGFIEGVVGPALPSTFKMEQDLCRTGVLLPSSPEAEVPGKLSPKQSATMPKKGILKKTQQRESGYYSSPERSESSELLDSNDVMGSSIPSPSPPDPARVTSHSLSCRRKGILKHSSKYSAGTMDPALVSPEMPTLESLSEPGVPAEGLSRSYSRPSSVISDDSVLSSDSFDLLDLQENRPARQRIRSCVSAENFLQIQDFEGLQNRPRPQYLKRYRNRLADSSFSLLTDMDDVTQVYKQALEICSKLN
property_name: IC50

Query block: Quick one: IC50 for Fc1cccc(Cl)c1C1=Nc2cn[nH]c2-c2cc(C(F)(F)F)ccc2N1 [Compound 47] ?
Result block: 100 to 1000 nM

Query block: Request: Cc1ccc2c(c1)-c1[nH]ncc1NC(c1c(Cl)cccc1Cl)=N2 [Compound 152]
Result block: 100 to 1000 nM

Query block: Request: Cc1ccc2c(c1)-c1[nH]ncc1NC(c1c(F)ccc(Br)c1Cl)=N2 [Compound 183]
Result block: 10 to 100 nM

Query block: Request: Fc1cccc(F)c1C1=Nc2ncccc2-c2[nH]ncc2N1 [Compound 11]
Result block: 10 to 100 nM

Query block: Request: COc1cc2c(cn1)NC(c1c(F)cccc1F)=Nc1cn[nH]c1-2 [Compound 127]
Result block: 10 to 100 nM

Query block: Request: Fc1cc2c(cc1-c1ccccc1)N=C(c1c(F)cccc1F)Nc1c[nH]nc1-2 [Compound 231]
Result block: 10 to 100 nM

Query block: Request: Fc1cccc(F)c1C1=Nc2cnc(OC(F)F)cc2-c2n[nH]cc2N1 [Compound 197]
Result block: 10 to 100 nM

Query block: Request: O=C(NC1CCOCC1)c1ccc2c(c1)N=C(c1c(F)cccc1F)Nc1cn[nH]c1-2 [Compound 95]
Result block: 10 to 100 nM

Query block: Request: Cc1ccc2c(c1)-c1[nH]ncc1NC(c1c(F)cccc1Br)=N2 [Compound 161]
Result block: 10 to 100 nM

Query block: Request: Fc1cccc(F)c1C1=Nc2cn[nH]c2-c2cc(OC(F)(F)F)ccc2N1 [Compound 40]
Result block: 100 to 1000 nM

Query block: Request: Fc1cccc(F)c1C1=Nc2cc(-c3ccn[nH]3)ccc2-c2[nH]ncc2N1 [Compound 159]
Result block: 10 to 100 nM

Query block: Request: Fc1ccc(-c2ccc3c(c2)N=C(c2c(F)cccc2Cl)Nc2c[nH]nc2-3)cc1 [Compound 238]
Result block: 10 to 100 nM

Query block: Request: OCc1ccc2c(c1)-c1[nH]ncc1N=C(c1c(F)cccc1F)N2 [Compound 50]
Result block: 10 to 100 nM

Query block: Request: Fc1cc2c(cc1-c1cccnn1)N=C(c1c(F)cccc1F)Nc1c[nH]nc1-2 [Compound 225]
Result block: 10 to 100 nM

Query block: Request: Cc1ccc2c(c1)-c1[nH]ncc1NC(c1c(F)ccc(F)c1F)=N2 [Compound 182]
Result block: 10 to 100 nM
